The values you see were collected from patent US10787451B2.

Measured purity as detected by HPLC, 60° C., listed per entry for reference.
Experiment: Stability test of crystal forms spread flat in the air under lighting, heating and high humidity (HPLC purity, XRPD)
Format: physicochemical
Conditions: heating 60° C., spread flat in the air, Day 5
// return numeric value only (unit: %, not printed)

Compound	Quantity Unit	Obs Value
CONC(=O)Nc1ccc(-n2nc3c(c2CN(C)C)c(=O)n(-c2ccc(OC)nn2)c(=O)n3Cc2c(F)cccc2F)cc1 [Crystal form B]	%	99.45
CONC(=O)Nc1ccc(-n2nc3c(c2CN(C)C)c(=O)n(-c2ccc(OC)nn2)c(=O)n3Cc2c(F)cccc2F)cc1 [Crystal form A]	%	97.62
CONC(=O)Nc1ccc(-n2nc3c(c2CN(C)C)c(=O)n(-c2ccc(OC)nn2)c(=O)n3Cc2c(F)cccc2F)cc1 [Crystal form D]	%	99.48
CONC(=O)Nc1ccc(-n2nc3c(c2CN(C)C)c(=O)n(-c2ccc(OC)nn2)c(=O)n3Cc2c(F)cccc2F)cc1 [Crystal form I]	%	99.24

Switching to the query record.
Record request: purity as detected by HPLC, 60° C. value, item CONC(=O)Nc1ccc(-n2nc3c(c2CN(C)C)c(=O)n(-c2ccc(OC)nn2)c(=O)n3Cc2c(F)cccc2F)cc1 [Crystal form C]
99.53
